Recorded binding intensity by entry
target: T1, human ROR2 expressed on the cell surface (human, UniProt Q01974 34-943); assay: flow cytometry, SKHEP-1 cells (HCC); set-up: unit not given here
T1 construct: Endogenous ROR2 of human tumour cell lines; also called cell surface ROR2; ROR2 on tumour cell lines
T1 sequence (Q01974 34-943 limits assumed): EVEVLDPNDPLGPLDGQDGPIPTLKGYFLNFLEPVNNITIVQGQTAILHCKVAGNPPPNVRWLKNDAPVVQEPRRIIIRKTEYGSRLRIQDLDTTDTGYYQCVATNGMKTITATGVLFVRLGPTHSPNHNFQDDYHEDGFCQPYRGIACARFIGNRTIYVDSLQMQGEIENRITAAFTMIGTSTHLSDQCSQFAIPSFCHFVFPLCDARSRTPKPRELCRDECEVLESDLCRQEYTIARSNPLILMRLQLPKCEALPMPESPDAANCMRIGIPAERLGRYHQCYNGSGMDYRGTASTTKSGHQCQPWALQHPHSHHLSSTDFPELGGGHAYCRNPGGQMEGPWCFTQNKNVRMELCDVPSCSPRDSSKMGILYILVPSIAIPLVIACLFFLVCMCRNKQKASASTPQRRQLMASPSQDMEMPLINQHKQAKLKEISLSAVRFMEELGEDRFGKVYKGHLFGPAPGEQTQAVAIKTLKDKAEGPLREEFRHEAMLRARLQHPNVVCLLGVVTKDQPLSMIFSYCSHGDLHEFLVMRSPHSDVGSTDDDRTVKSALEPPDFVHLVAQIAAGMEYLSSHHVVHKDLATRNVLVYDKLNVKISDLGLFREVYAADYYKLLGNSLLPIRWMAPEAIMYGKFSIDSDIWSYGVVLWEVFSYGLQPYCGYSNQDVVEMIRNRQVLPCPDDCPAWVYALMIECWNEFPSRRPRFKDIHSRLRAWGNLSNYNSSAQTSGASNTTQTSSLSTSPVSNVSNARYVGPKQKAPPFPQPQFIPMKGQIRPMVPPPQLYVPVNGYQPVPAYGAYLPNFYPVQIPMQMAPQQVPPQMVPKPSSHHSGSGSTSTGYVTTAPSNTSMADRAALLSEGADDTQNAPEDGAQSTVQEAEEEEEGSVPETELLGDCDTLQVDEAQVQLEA

The examples below pair each entry with its known result.
INSERT INTO assay_data (binder, readout_label, observed_value) VALUES
  ('ROR2-23 full length human IgG1 antibody (antibody, V domains shown, The light chain of clone 023 is labelled kappa; also called clone #23; clone #023 IgG1) VH: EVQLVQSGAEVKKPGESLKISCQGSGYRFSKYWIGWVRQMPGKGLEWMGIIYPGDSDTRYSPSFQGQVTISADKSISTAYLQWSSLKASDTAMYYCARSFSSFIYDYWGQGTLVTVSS VL: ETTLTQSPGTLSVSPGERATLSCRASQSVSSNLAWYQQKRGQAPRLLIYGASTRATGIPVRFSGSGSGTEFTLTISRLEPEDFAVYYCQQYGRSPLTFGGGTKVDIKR', 'binding intensity', 42),
  ('ROR2-240 full length human IgG1 antibody (antibody, V domains shown, also called clone #240 IgG1) VH: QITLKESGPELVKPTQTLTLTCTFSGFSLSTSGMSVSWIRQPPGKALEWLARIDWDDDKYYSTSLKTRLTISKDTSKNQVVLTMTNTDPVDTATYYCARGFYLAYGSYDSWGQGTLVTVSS VL: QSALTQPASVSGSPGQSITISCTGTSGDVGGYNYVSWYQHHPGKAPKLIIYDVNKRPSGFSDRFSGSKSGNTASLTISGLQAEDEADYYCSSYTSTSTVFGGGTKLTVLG', 'binding intensity', 21),
  ('ROR2-241 full length human IgG1 antibody (antibody, V domains shown) VH: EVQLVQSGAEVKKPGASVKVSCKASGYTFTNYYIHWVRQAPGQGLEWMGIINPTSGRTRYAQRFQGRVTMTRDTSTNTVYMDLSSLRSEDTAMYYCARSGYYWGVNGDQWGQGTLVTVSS VL: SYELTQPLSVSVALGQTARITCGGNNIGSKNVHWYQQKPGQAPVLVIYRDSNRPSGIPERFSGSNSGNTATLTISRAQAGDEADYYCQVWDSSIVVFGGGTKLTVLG', 'binding intensity', 53),
  ('ROR2-27 full length human IgG1 antibody (antibody, V domains shown, also called clone #27; clone #027 IgG1) VH: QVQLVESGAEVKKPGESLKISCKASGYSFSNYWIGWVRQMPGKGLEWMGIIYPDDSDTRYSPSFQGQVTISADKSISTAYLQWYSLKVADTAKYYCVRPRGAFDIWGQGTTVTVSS VL: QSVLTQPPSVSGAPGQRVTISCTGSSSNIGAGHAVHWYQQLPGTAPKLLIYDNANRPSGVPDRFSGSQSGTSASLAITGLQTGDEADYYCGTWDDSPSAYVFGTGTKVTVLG', 'binding intensity', 23);

Continue with the next binder.
Reported binding intensity, binder ROR2-90 full length human IgG1 antibody (antibody, V domains shown, also called clone #90; antibody #90) VH: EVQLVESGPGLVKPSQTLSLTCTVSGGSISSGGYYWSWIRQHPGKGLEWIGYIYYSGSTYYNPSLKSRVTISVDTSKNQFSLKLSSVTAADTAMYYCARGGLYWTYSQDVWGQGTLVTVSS VL: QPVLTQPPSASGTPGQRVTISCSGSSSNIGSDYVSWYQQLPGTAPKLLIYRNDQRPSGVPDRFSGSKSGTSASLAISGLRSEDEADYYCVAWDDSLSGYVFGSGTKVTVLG : ____
74
